All values here come from patent US10065948B2.

Assign log10 of IC50 to each entry below.
Tested on: cellular histone deacetylase enzymatic activity in Jurkat E6-1 cells
Procedure text: Inhibition of cellular HDAC activity, Boc-Lys(Tfa)-AMC substrate (Cell Lys-TFA)
Assay type: cell-based
Condition summary: Homo sapiens, Jurkat E6.1, Lys-TFA substrate
Scale: log10; quantity: IC50; unit before log: nM

Looking up `Cc1c(F)cccc1C1(C(=O)NO)Cc2ccccc2C1` , I see its log10 of IC50 listed as 3.26

Looking up `Cc1c(F)cccc1[C@]1(C(=O)NO)Cc2cnc(-c3ccc(F)cc3)nc2C1` , I see its log10 of IC50 listed as 2.41

Looking up `Cc1cc(F)ccc1-n1cc2c(n1)C[C@](C(=O)NO)(c1cccc(F)c1C)C2` , I see its log10 of IC50 listed as 2.13

Looking up Cc1c(F)cccc1C1(C(=O)NO)CCc2nc(-c3ccccc3)ncc2C1 (centres unmarked) , I see its log10 of IC50 listed as 3.04

Looking up `Cc1c(F)cccc1[C@]1(C(=O)NO)Cc2cnn(C3CC3)c2C1` , I see its log10 of IC50 listed as 2.10

Looking up `Cc1cc(-c2nc3c(s2)C[C@@](C(=O)NO)(c2cccc(F)c2C)C3)n(C)n1` , I see its log10 of IC50 listed as 1.90

Looking up `Cc1c(F)cccc1[C@@]1(C(=O)NO)Cc2nc(-c3ccc(F)cc3)sc2C1` , I see its log10 of IC50 listed as 1.99

Looking up `Cc1c(F)cccc1[C@]1(C(=O)NO)Cc2cnn(C(C)C)c2C1` , I see its log10 of IC50 listed as 2.36

Looking up `Cc1c(F)cccc1[C@]1(C(=O)NO)Cc2cnn(-c3ccccc3F)c2C1` , I see its log10 of IC50 listed as 1.52

Looking up Cc1c(F)cccc1C1(C(=O)NO)CCc2cnc(C3CC3)nc2CC1 (centres unmarked) , I see its log10 of IC50 listed as 2.69

Looking up `Cc1c(F)cccc1[C@]1(C(=O)NO)Cc2cnn(-c3cccc(F)c3)c2C1` , I see its log10 of IC50 listed as 1.83

Looking up `Cc1c(F)cccc1[C@]1(C(=O)NO)Cc2snc(-c3ccccc3)c2C1` , I see its log10 of IC50 listed as 1.65

Looking up `Cc1c(F)cccc1[C@]1(C(=O)NO)CCc2c1cnn2Cc1ccccc1` , I see its log10 of IC50 listed as 2.23

Looking up `Cc1c(F)cccc1[C@]1(C(=O)NO)Cc2cnn(-c3c(F)cccc3F)c2C1` , I see its log10 of IC50 listed as 1.43

Looking up `Cc1c(F)cccc1[C@]1(C(=O)NO)Cc2cnc(-c3ccccc3Cl)nc2C1` , I see its log10 of IC50 listed as 1.78

Looking up `Cc1c(F)cccc1[C@@]1(C(=O)NO)Cc2nc(-c3ccnn3C)sc2C1` , I see its log10 of IC50 listed as 1.54

Looking up `Cc1c(F)cccc1[C@]1(C(=O)NO)Cc2cn(-c3ncccc3Cl)nc2C1` , I see its log10 of IC50 listed as 1.84

Looking up `Cc1c(F)cccc1[C@]1(C(=O)NO)Cc2cnn(-c3c(F)cccc3Cl)c2C1` , I see its log10 of IC50 listed as 1.04

Looking up `Cc1c(F)cccc1[C@]1(C(=O)NO)Cc2cnn(-c3ccc(F)cc3)c2C1` , I see its log10 of IC50 listed as 2.00

Looking up `Cc1ccc(-n2ncc3c2C[C@](C(=O)NO)(c2cccc(F)c2C)C3)cc1` , I see its log10 of IC50 listed as 1.91

Looking up Cc1c(F)cccc1C1(C(=O)NO)CCc2nc(C3CC3)[nH]c(=O)c2C1 (centres unmarked) , I see its log10 of IC50 listed as 2.76

Looking up `Cc1c(F)cccc1[C@]1(C(=O)NO)Cc2nn(C)c(-c3ccc(F)cc3)c2C1` , I see its log10 of IC50 listed as 1.41

Looking up `Cc1c(F)cccc1[C@@]1(C(=O)NO)Cc2nc(-c3ccc(F)cn3)sc2C1` , I see its log10 of IC50 listed as 1.78

Looking up `Cc1c(F)cccc1[C@]1(C(=O)NO)Cc2cnn(-c3ccc(OC(F)F)cc3)c2C1` , I see its log10 of IC50 listed as 2.40

Looking up `Cc1c(F)cccc1[C@]1(C(=O)NO)Cc2cnc(C(F)(F)F)nc2C1` , I see its log10 of IC50 listed as 3.26

Looking up `Cc1c(F)cccc1[C@]1(C(=O)NO)CCc2c1cnn2-c1ccccc1` , I see its log10 of IC50 listed as 2.51

Looking up `Cc1c(F)cccc1[C@]1(C(=O)NO)Cc2cnn(Cc3ccccc3)c2C1` , I see its log10 of IC50 listed as 1.43

Looking up `Cc1ccc(C)c(-n2ncc3c2C[C@](C(=O)NO)(c2cccc(F)c2C)C3)c1` , I see its log10 of IC50 listed as 1.26

Looking up `Cc1c(F)cccc1[C@]1(C(=O)NO)Cc2cnn(-c3cccc(Cl)c3F)c2C1` , I see its log10 of IC50 listed as 1.23

Looking up `Cc1cnccc1-n1ncc2c1C[C@](C(=O)NO)(c1cccc(F)c1C)C2` , I see its log10 of IC50 listed as 1.85

Looking up `Cc1cccc(F)c1-n1ncc2c1C[C@](C(=O)NO)(c1cccc(F)c1C)C2` , I see its log10 of IC50 listed as 1.51

Looking up `Cc1c(F)cccc1[C@]1(C(=O)NO)Cc2cnc(-c3cccnc3)nc2C1` , I see its log10 of IC50 listed as 2.30

Looking up `Cc1c(F)cccc1[C@]1(C(=O)NO)Cc2cnc(C3CC3)nc2C1` , I see its log10 of IC50 listed as 2.32
